Entries and their measured pEC50 follow.
target under test: HLA-A*0201 (Homo sapiens, UniProt P04439, /I218V/L300P/L318F/N151K/N90K/P208A/P217A/Q86G/Q94H/R138H/R169H/T345S)
experiment description: biochemical
Type: binding
assay context: HLA-A*0201-transfected TAP-deficient RMA-S cells; peptide 2 h 26°C then 2 h 37°C; concentration range 0.001-100 μM; mAb PA2.1, flow cytometry; mean ± SD of four independent experiments; SD; read-out: HLA-A*0201 Affinity values, EC50
Ends that are not written are not given here.
Convention used: pEC50 is expressed as -log10 of the molar concentration.

Study these solved cases before continuing.
1. TLAFLAVMSV [6K 45–54]
6.00
2. ILDRIITNA [A10L 688-696]
5.52
3. VMSVGAHTV [6K 51–59]
5.05
4. ALIPLAALIV [6K 22–31]
4.68

Here is the next item to consider.
Dear colleague, please send me the reported pEC50 for ALIPLAALI [6K 22–30] when you can.
4.48
